Answer each item with its documented GFP response vs DMSO.
assay: modulators of MEP2-GFP levels in yeast, confirmation, S. cerevisiae, flow cytometry GFP, cherry picks (AID 2272);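 further: ratio of well signal to plate DMSO mean so 100% equals DMSO level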; conditions: S. cerevisiae MEP2-GFP strain, 3 h, at 10 µM, active compounds read high
# value in %; strip the unit string

Any idea what its GFP response vs DMSO is? The compound is `CCn1c(=O)c(C(=O)Nc2ccsc2C(=O)OC)c(O)c2ccccc21`
96.8

Any idea what its GFP response vs DMSO is? The compound is Cc1ccc(S(=O)(=O)N2C3C=CC(C3)C2C(=O)O)cc1 (configuration not stated)
106

Any idea what its GFP response vs DMSO is? The compound is `CC(=O)Nc1cccc(C(=O)/C=C/c2ccc(C)cc2)c1`
110

Any idea what its GFP response vs DMSO is? The compound is `O=c1oc2cc(Oc3c([N+](=O)[O-])cc(C(F)(F)F)cc3[N+](=O)[O-])ccc2c2c1CCCC2`
105

Any idea what its GFP response vs DMSO is? The compound is `O=S1(=O)Nc2c(ccc3cccnc23)-c2ccccc21`
112

Any idea what its GFP response vs DMSO is? The compound is COc1ccc(C2c3c(oc4ccccc4c3=O)C(=O)N2CCN2CCOCC2)cc1OC (configuration not stated)
172

Any idea what its GFP response vs DMSO is? The compound is `Cc1ccc(C)c(-c2nnc(NC(=O)c3ccc([N+](=O)[O-])o3)o2)c1`
107

Any idea what its GFP response vs DMSO is? The compound is `Cc1cc(C)n(C(=O)/C(C#N)=N\Nc2ccccc2[N+](=O)[O-])n1`
163

Any idea what its GFP response vs DMSO is? The compound is O=C(O)CSC1CC(=O)N(c2ccc(Cl)cc2)C1=O (configuration not stated)
108

Any idea what its GFP response vs DMSO is? The compound is `CC(=O)S[C@@H]1CC2=CC(=O)CC[C@]2(C)[C@H]2CC[C@@]3(C)[C@@H](CC[C@@]34CCC(=O)O4)[C@H]12`
100

Any idea what its GFP response vs DMSO is? The compound is `CCc1nnc(NC(=O)c2ccc(S(=O)(=O)N(CC)Cc3ccccc3)cc2)o1`
102

Any idea what its GFP response vs DMSO is? The compound is `CCOC(=O)c1cc2c(=O)n3ccccc3nc2n(CCOC)c1=NC(=O)C(C)(C)C`
99

Any idea what its GFP response vs DMSO is? The compound is `O=C(Nc1cccc(F)c1)c1ccccc1`
103

Any idea what its GFP response vs DMSO is? The compound is `O=C(Nc1nnc(-c2ccccc2Cl)o1)c1ccc(S(=O)(=O)N2CCCCCC2)cc1`
101

Any idea what its GFP response vs DMSO is? The compound is `COc1cc(NC(=O)c2ccc(F)cc2)ccc1NC(=O)c1cc2ccccc2o1`
101

Any idea what its GFP response vs DMSO is? The compound is `CCc1ccc(-c2csc(NC(=O)COC(=O)CCc3nc4ccccc4s3)n2)cc1`
103

Any idea what its GFP response vs DMSO is? The compound is `Cc1cccn2c(=O)c(/C=C(\C#N)C(=O)NCc3ccco3)c(N3CCCCCC3)nc12`
97.8

Any idea what its GFP response vs DMSO is? The compound is CCOc1ccc(C(C)=O)cc1N1C(=O)C2C3C=CC(O3)C2C1=O (configuration not stated)
103

Any idea what its GFP response vs DMSO is? The compound is `O=C(Nc1cc(F)c(Br)cc1F)c1ccc(Cl)cc1`
106

Any idea what its GFP response vs DMSO is? The compound is `O=C1C(Cl)=C(Nc2ccc(F)cc2)C(=O)N1CCc1ccccc1`
101

Any idea what its GFP response vs DMSO is? The compound is `Cc1nn(Cc2ccccc2Cl)c(C)c1C(=O)NCc1ccco1`
99.3

Any idea what its GFP response vs DMSO is? The compound is `N=C1/C(=C\c2ccc(Br)o2)C(=O)N=C2SC(CC(=O)N3CCCCC3)=NN12`
103

Any idea what its GFP response vs DMSO is? The compound is `COc1ccc2c(c1)c(C(C)=O)c(C)n2-c1ccccc1OC`
101

Any idea what its GFP response vs DMSO is? The compound is O=S(=O)(c1ccccc1)N1N=C(c2cccs2)CC1c1ccc(F)cc1 (configuration not stated)
100

Any idea what its GFP response vs DMSO is? The compound is `Brc1ccc2c(c1)OCCOCCOc1cc(Br)ccc1OCCOCCOCCO2`
111

Any idea what its GFP response vs DMSO is? The compound is O=C1C2C3C=CC(CO)(O3)C2C(=O)N1c1ccc(-c2ccccc2)cc1 (configuration not stated)
103

Any idea what its GFP response vs DMSO is? The compound is `CN(C)CCCN(C(=O)c1cccs1)c1nc(-c2ccccc2)cs1`
102

Any idea what its GFP response vs DMSO is? The compound is `Cc1cc(=O)[nH]c(-n2nc(C)cc2C)n1`
105

Any idea what its GFP response vs DMSO is? The compound is `CN(C)c1ccc(N=Cc2nc(-c3ccccc3)oc2OC(=O)c2ccccc2)cc1`
115

Any idea what its GFP response vs DMSO is? The compound is `COc1ccc(OC)c(/C=C/C(=O)c2ccc(Cl)cc2)c1`
96.2

Any idea what its GFP response vs DMSO is? The compound is COc1ccc(OC)c(C2CC(c3c(-c4ccccc4)c4cc(Cl)ccc4[nH]c3=O)=NN2S(C)(=O)=O)c1 (configuration not stated)
100

Any idea what its GFP response vs DMSO is? The compound is `Cc1ccc(-c2csc(NC(=O)c3cccs3)n2)cc1`
112
